Each recorded value in this set is attributed to patent US20060029603A1.

Biological target: T1, GST-human NOGO-A56 (human, UniProt P08515 1-218 = GST)
T1 construct: GST-tagged fusion expressed in E. coli BL21 and purified on glutathione-sepharose; coated on ELISA plates or amine-coupled to a CM5 chip; also called hNOGO; recombinant human NOGO
T1 sequence (P08515 1-218, tags or fused parts left off): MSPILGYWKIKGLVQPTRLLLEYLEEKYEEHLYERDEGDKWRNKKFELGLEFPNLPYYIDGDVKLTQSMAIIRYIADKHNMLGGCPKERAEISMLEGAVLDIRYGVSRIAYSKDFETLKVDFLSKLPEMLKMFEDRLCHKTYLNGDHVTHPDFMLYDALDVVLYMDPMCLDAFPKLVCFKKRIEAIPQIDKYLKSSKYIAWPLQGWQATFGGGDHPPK
Experiment: ELISA, coated GST-human NOGO-A56, transfection supernatant, anti-human kappa-HRP, OD 490 nm
assay metric: EC50 (read off the curve)

binder | EC50 (read off the curve)
H18L18 (antibody, human IgG1, kappa, V domains shown, Tested as CHO-K1 supernatant) VH: QVQLVQSGAEVVKPGASVKLSCKASGYTFTSYWMHWVKQRPGQGLEWIGNINPSNGGTNYNEKFKSKATLTVDKSSSTAYMELSSLRSEDSAVYYCELGQGYWGQGTLVTVSS VL: DIVMTQDPLSNPVTLGQPVSISCRSSKSLLYKDGKTYLNWFLQRPGQSPQLLIYLMSTRASGVSDRFSGSGSGTDFTLKISRVEAEDVGVYYCQQLVEYPLTFGQGTKLEIKR | ~0.1 µg/mL
H6L13 (antibody, human IgG1, kappa, V domains shown, Humanised 2A10; Human gamma1 mutated constant region and human kappa; also called H6L13 FL) VH: QVQLVQSGAEVKKPGASVKVSCKASGYTFTSYWMHWVRQAPGQGLEWIGNINPSNGGTNYNEKFKSRATMTRDTSTSTAYMELSSLRSEDTAVYYCELGQGYWGQGTLVTVSS VL: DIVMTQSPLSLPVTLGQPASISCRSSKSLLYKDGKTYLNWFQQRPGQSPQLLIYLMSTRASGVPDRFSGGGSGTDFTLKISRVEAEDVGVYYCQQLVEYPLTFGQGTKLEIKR | ~0.2 µg/mL
H16L17 (antibody, V domains shown, copies: 2 + 2) VH: QVQLVQSGAEVKKPGASVKVSCKASGYTFTSYWMHWVKQRPGQGLEWIGNINPSNGGTNYNEKFKSKATLTVDKSTSTAYMELSSLRSEDTAVYYCELGQGYWGQGTLVTVSS VL: DIVMTQDPLSLPVTLGQPASISCRSSKSLLYKDGKTYLNWFQQRPGQSPQLLIYLMSTRASGVSDRFSGSGSGTDFTLKISRVEAEDVGVYYCQQLVEYPLTFGQGTKLEIKR | ~0.1 µg/mL

Note: attention shifts to another entry.
Item: HcLc (chimera of 2A10: murine 2A10 VH and VL with human IgG constant regions) (antibody, V domains shown, Human gamma1 mutated constant region and human kappa; also called 2A10 chimeric antibody; the chimera) VH: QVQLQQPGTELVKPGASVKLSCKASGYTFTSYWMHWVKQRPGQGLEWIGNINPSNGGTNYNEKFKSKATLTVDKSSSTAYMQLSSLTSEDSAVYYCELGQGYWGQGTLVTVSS VL: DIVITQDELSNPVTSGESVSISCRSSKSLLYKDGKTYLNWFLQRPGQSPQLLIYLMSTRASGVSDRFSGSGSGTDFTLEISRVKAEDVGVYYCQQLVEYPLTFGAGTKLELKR | EC50 (read off the curve): ~0.09 µg/mL
